target: Nav1.5/β1 (Homo sapiens, UniProt Q14524); construct: Nav1.5 (UniProt: Q14524.1); expressed in transfected cells; host or cells: Xenopus laevis oocytes (cRNA injection, Nav1.5:β1 2:1 by weight); assay: Two-electrode voltage clamp of Nav1.5/β1 expressed in Xenopus oocytes; type: cell-based; details: 7 μM; relative current at 0 mV
Sequence (Q14524 whole entry): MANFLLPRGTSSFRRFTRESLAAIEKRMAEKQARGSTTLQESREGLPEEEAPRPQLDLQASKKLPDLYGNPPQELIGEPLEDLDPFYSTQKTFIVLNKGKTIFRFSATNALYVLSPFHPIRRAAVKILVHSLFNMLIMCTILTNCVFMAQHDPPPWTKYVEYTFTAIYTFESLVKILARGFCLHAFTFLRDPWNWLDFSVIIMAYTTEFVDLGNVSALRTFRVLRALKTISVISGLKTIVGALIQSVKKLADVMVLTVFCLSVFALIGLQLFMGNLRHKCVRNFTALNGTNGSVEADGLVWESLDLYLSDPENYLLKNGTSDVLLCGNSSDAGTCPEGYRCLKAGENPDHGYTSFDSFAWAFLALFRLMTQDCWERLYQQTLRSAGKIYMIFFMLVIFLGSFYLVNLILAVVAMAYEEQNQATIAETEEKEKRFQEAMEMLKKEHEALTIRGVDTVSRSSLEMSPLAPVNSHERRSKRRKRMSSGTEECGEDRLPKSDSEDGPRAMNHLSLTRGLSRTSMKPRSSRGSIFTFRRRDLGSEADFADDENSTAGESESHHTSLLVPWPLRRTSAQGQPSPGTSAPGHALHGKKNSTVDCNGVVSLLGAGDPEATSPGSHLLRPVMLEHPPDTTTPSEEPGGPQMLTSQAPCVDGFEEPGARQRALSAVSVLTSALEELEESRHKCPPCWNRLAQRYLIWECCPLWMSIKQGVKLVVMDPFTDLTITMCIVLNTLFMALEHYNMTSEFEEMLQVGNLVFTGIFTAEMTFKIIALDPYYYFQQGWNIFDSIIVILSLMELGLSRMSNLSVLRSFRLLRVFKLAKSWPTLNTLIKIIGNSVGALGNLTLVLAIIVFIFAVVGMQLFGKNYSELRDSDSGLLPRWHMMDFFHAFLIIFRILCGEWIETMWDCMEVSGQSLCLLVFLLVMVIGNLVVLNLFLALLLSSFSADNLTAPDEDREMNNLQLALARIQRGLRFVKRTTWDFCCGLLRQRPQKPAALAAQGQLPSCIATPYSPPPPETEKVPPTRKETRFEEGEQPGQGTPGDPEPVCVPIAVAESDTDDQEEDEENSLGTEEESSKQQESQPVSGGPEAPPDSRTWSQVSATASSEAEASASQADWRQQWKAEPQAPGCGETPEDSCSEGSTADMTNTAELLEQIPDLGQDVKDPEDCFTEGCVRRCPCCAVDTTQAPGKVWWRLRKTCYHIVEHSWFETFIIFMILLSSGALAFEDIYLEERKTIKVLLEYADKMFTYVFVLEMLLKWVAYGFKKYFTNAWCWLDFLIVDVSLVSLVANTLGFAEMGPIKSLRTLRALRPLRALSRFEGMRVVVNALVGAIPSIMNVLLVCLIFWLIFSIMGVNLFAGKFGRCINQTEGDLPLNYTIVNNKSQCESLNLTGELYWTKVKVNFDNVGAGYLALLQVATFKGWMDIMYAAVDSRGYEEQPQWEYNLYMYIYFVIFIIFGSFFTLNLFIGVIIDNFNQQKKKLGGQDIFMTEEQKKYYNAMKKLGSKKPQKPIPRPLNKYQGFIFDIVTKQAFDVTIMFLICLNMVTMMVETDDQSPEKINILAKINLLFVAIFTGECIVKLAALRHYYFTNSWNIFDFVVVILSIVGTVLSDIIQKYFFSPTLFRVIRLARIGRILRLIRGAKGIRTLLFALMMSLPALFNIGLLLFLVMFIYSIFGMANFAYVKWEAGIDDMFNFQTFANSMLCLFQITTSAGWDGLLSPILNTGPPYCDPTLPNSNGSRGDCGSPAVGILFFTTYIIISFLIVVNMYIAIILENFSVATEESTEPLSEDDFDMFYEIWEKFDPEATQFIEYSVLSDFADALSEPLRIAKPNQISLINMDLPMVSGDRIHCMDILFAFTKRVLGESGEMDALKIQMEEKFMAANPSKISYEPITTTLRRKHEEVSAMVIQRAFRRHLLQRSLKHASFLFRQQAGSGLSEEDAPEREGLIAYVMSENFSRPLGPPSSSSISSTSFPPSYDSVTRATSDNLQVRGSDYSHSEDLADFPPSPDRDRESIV
Sequence (Q07699 19-218 partner): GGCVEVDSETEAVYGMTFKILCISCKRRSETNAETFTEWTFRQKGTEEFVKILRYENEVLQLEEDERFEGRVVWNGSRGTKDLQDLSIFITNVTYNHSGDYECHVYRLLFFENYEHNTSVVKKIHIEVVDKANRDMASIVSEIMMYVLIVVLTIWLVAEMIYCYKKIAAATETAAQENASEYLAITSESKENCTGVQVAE
Endpoint: INa I/I0

Check out these entries, answers already filled in.
- Smiles input: "CCCCC/C=C\\C/C=C\\CC/C=C\\CCCC(=O)NCCS(=O)(=O)O"
  INa I/I0: "0.5 ± 0.1 (p=0.01)"
- Smiles input: "CCCCC/C=C\\C/C=C\\CCCCCCCC(=O)NCC(=O)O"
  INa I/I0: "0.5 ± 0.1 (p=0.02)"
- Smiles input: "CCCCC/C=C\\C/C=C\\CC/C=C\\CCCC(=O)NCC(=O)O"
  INa I/I0: "0.7 ± 0.1 (p=0.09)"

Now for the compound whose INa I/I0 we want.
[Q] State, in one line, measured INa I/I0 of CCCCC/C=C\C/C=C\CCCCCCCC(=O)NCCS(=O)(=O)O
[A] 0.1 ± 0.02 (p=0.0001)
